For each of the compounds below, state its pIC50.
TARGET: hPAD4 (Homo sapiens, UniProt Q9UM07)
Sequence (Q9UM07 whole entry): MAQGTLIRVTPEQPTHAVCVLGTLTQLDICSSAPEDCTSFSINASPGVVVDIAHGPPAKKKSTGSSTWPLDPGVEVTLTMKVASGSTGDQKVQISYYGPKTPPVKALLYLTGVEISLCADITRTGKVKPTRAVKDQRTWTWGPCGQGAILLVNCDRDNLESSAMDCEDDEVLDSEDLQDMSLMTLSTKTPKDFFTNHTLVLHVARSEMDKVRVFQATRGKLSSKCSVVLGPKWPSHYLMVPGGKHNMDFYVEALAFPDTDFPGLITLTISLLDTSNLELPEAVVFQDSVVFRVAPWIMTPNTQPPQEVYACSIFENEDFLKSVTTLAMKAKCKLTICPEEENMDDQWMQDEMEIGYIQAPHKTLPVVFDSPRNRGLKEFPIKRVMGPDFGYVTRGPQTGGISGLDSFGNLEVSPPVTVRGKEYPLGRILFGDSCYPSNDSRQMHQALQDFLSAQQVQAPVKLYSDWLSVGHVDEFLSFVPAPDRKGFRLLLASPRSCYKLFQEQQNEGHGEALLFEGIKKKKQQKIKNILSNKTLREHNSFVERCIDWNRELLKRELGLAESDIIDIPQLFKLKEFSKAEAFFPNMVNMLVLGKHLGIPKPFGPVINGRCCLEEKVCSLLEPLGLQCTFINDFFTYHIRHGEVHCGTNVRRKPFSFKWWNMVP
ASSAY_DETAILS: hPAD4 RFMS (RapidFire mass spectrometry) PAD4 inhibition assay
Assay type: biochemical
SETTINGS: hPAD4 enzyme, RFMS readout; read-out: hPAD4 RFMS IC50
pIC50: −log10 of the molar value.

Worked examples, 3 compounds total:
>  <COMPOUND>
CCn1c(-c2nc3cc(C(=O)N4CCC[C@@H](N)C4)cc(OC)c3n2C)cc2ccc(OC(F)F)nc21 [Compound I-201]

>  <TARGET>
hPAD4 (Homo sapiens, UniProt Q9UM07)

>  <pIC50>
> 6.00

$$$$
>  <COMPOUND>
Cn1c(-c2cc3cccnc3n2CC2CC2)nc2cc(C(=O)N3CCCC4(CCCCN4)C3)ccc21 (stereo not shown) [Compound I-48]

>  <TARGET>
hPAD4 (Homo sapiens, UniProt Q9UM07)

>  <pIC50>
< 5.00

$$$$
>  <COMPOUND>
COc1cc(C(=O)N2CCCC3(CNC3)C2)cc2nc(-c3cc4cccnc4n3CC3CC3)n(C)c12 [Compound I-100]

>  <TARGET>
hPAD4 (Homo sapiens, UniProt Q9UM07)

>  <pIC50>
< 5.00

$$$$

Take each entry in turn and give its pIC50.
1. Cn1c(-c2cc3cccnc3n2CC2CC2)nc2cc(C(=O)N3C[C@@H](N)C[C@H](F)C3)ccc21 [Compound I-66]
2. CCn1c(-c2nc3cc(C(=O)N4CCC[C@@H](N)C4)cc(OC)c3n2C)cc2ccc(OC)nc21 [Compound I-135]

["> 6.00", "> 6.00"]

* * *

TARGET: mPAD4 (Mus musculus, UniProt Q9Z183)
Sequence (Q9Z183 whole entry): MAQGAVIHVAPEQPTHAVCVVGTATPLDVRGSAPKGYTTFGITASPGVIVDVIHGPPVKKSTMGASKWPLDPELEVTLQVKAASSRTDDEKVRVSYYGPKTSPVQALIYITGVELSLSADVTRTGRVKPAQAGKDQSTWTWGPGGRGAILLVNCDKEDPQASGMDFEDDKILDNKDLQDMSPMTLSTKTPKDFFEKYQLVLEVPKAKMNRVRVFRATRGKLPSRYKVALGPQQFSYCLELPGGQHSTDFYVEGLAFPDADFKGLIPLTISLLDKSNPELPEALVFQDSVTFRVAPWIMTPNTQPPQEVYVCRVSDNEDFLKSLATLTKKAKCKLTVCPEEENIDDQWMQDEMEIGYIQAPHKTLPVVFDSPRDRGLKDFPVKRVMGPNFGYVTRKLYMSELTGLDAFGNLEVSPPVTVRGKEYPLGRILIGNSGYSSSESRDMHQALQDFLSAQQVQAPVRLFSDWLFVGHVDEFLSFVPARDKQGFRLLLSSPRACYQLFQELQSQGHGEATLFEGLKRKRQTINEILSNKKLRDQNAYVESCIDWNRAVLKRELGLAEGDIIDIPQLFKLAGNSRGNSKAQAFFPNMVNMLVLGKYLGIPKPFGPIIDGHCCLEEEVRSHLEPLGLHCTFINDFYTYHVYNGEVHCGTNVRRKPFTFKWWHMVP
ASSAY_DETAILS: mPAD4 RFMS PAD4 inhibition assay
Format: biochemical
SETTINGS: mPAD4, RFMS readout; read-out: mPAD4 RFMS IC50
Where a name gives a salt, the structure may show the parent alone.
OBSERVABLE: IC50

Before answering, review these 5 worked examples.
>  <COMPOUND>
COCCn1c(-c2nc3cc(C(=O)N4CCC[C@@H](N)C4)ccc3n2C)cc2ccc(OC)nc21 [Compound I-193]

>  <EXPERIMENTAL_VALUE>
1 to 5 µM

$$$$
>  <COMPOUND>
Cn1c(-c2cc3cccnc3n2CC2CC2)nc2cc(C(=O)N3CCC[C@@H](N)C3)cc(CO)c21 [Compound I-128]

>  <EXPERIMENTAL_VALUE>
1 to 5 µM

$$$$
>  <COMPOUND>
CCn1c(-c2cc3cccnc3n2CC2CC2)nc2cc(C(=O)N3CC[C@H]4CCN[C@H]4C3)cc(OC)c21 [Compound I-22]

>  <EXPERIMENTAL_VALUE>
> 10 µM

$$$$
>  <COMPOUND>
COc1cc(C(=O)N2C[C@H]3CC[C@@H]2[C@@H]3N)cc2nc(-c3cc4cccnc4n3CC3CC3)n(C[C@H]3C[C@@](C)(OC)C3)c12 [Compound I-181]

>  <EXPERIMENTAL_VALUE>
< 1 µM

$$$$
>  <COMPOUND>
CN[C@@H]1[C@@H]2CC[C@H]1N(C(=O)c1cc(OC)c3c(c1)nc(-c1cc4cccnc4n1CC1CC1)n3C)C2 [Compound I-237]

>  <EXPERIMENTAL_VALUE>
> 10 µM

$$$$

Required: IC50, one value per compound below.
1. Cn1c(-c2cc3cccnc3n2CC2CC2)nc2cc(C(=O)N3CC[C@H]4CCN[C@H]4C3)cc(OC(F)F)c21 (single isomer, unassigned) [Compound I-25, hydrochloride]
2. COc1cc(C(=O)N2CC3CCC2[C@@H]3N)cc2nc(-c3cc4cccnc4n3CC3CC3)n(C)c12 (stereo partly shown) [Compound I-30]
3. CC(=O)Nc1ccnc2c1cc(-c1nc3cc(C(=O)N4CCC[C@@H](N)C4)ccc3n1C)n2CC1CC1 [Compound I-69]
4. COc1cc(C(=O)N2CCC[C@@H](N)C2)cc2nc(-c3cc4cccnc4n3CCF)n(C)c12 [Compound I-146]
5. Cn1c(-c2cc3cccnc3n2CC2CC2)nc2cc(C(=O)N3CCC[C@@H](N)C3)cc(C(N)=O)c21 [Compound I-112, hydrochloride]

1 to 5 µM
> 10 µM
> 10 µM
< 1 µM
1 to 5 µM

* * *

TARGET: mPAD4 (Mus musculus)
ASSAY_DETAILS: mPAD4 RFMS PAD4 inhibition assay
Format: biochemical
SETTINGS: mPAD4, RFMS readout; pIC50=−log(IC50); read-out: mPAD4 RFMS pIC50 (converted)
Protocol: Compounds of the present invention were assayed as inhibitors of PAD4 using the assay protocol described below. Compound stock solutions were stored at RT. […] Final assay conditions were as follows: Total incubation time: 65 mins at 37° C. Stop solution: 40 μl 5% TCA in ACN The compound numbers correspond to the compound numbers in Table 1. […] The term pIC50=−log(IC50). […] “NA” stands for “not assayed.”
OBSERVABLE: IC50

Before answering, review these 3 worked examples.
>  <COMPOUND>
COc1ccc2cc(-c3nc4cc(C(=O)N5C[C@H](N)C[C@@H](F)C5)cc(OC)c4n3C)n(CC3CC3)c2n1

>  <IC50>
< 1 µM

$$$$
>  <COMPOUND>
COc1cc(C(=O)N2CCC[C@@H](N)C2)cc2nc(-c3cc4cccnc4n3CC3CC3)n(CC3CC(C)(O)C3)c12 (stereo partly shown)

>  <IC50>
< 1 µM

$$$$
>  <COMPOUND>
CCn1c(-c2cc3cccnc3n2CC2CC2)nc2cc(C(=O)N3CCC[C@@H](N)C3)cc(OC)c21

>  <IC50>
< 1 µM

$$$$

Given COc1cc(C(=O)N2CC[C@H](OC)[C@H](N)C2)cc2nc(-c3cc4cccnc4n3CC3CC3)n(C)c12 , respond with its IC50.
1 to 10 µM

* * *

Give IC50 for every item shown.
TARGET: hPAD4 (Homo sapiens, UniProt Q9UM07)
ASSAY_DETAILS: hPAD4 RFMS (RapidFire mass spectrometry) PAD4 inhibition assay
Assay type: biochemical
SETTINGS: hPAD4 enzyme, RFMS readout; read-out: hPAD4 RFMS IC50
Structures can show the parent of a compound that is named as a salt.

Recorded results for 3 compounds are shown here.
>  <COMPOUND>
COc1cc(C(=O)N2C[C@H]3CCC2[C@H]3N)cc2nc(-c3cc4ccc(/C=C/CC(C)C)cc4n3CC3CC3)n(C)c12 [Compound I-364]

>  <EXPERIMENTAL_VALUE>
< 1000 nM

$$$$
>  <COMPOUND>
COc1ccc2cc(-c3nc4cc(C(=O)N5C[C@H]6CC[C@@H]5[C@@H]6N)cc(F)c4n3C)n(CC3CC3)c2n1 [Compound I-230]

>  <EXPERIMENTAL_VALUE>
< 1000 nM

$$$$
>  <COMPOUND>
COc1cc(C(=O)N2C[C@H]3CC[C@@H]2[C@@H]3N)cc2nc(-c3cc4cc(F)cnc4n3CC3CC3)n(C)c12 [Compound I-222]

>  <EXPERIMENTAL_VALUE>
< 1000 nM

$$$$

Please give IC50 for each item listed below.
1. CC(=O)Nc1ccnc2c1cc(-c1nc3cc(C(=O)N4CCC[C@@H](N)C4)ccc3n1C)n2CC1CC1 [Compound I-69]
2. COc1cc(C(=O)N2C[C@H]3CC[C@@H]2[C@@H]3N)cc2nc(-c3cc4cccnc4n3CCF)n(C)c12 [Compound I-157]
3. COc1cc(C(=O)N2C[C@@H](N)C[C@H](F)C2)cc2nc(-c3cc4cccnc4n3CC3(C)CC3)n(C)c12 [Compound I-93]

< 1000 nM
1000 to 5000 nM
1000 to 5000 nM

Return reported IC50 values for all items listed beneath this line.
1. COc1ccc2cc(-c3nc4cc(C(=O)N5CCC[C@@H](N)C5)cc(OC)c4n3C)n(CC3CC3)c2n1 [Compound I-33]
2. COc1cc(C(=O)N2C[C@H]3CC[C@@H]2[C@@H]3N)cc2nc(-c3cc4cccnc4n3CC3CC3)n(C[C@H]3CCOC3)c12 [Compound I-231]
3. COc1cc(C(=O)N2CC3CCC2C3N)cc2nc(-c3cc4cccnc4n3CC3CC3)n(C)c12 (centres unmarked) [Compound I-81]

1: < 1000 nM; 2: < 1000 nM; 3: < 1000 nM

Value sought for every listed compound: IC50.
1. COc1ccc2cc(-c3nc4cc(C(=O)N5C[C@@H](N)C[C@H](F)C5)ccc4n3C)n(CC3CC3)c2n1 [Compound I-354]
2. COCCn1c(-c2nc3cc(C(=O)N4CCC[C@@H](N)C4)ccc3n2C)cc2ccc(OC)nc21 [Compound I-193]
3. CCn1c(-c2nc3cc(C(=O)N4C[C@H]5CC[C@@H]4[C@@H]5N)cc(OC)c3n2CCOC)cc2cccnc21 [Compound I-175]
4. COc1cc(C(=O)N2C[C@H](N)CC[C@H]2C)cc2nc(-c3cc4cccnc4n3CC3CC3)n(C)c12 [Compound I-88]
5. Cn1c(-c2cc3cccnc3n2CC2CC2)nc2cc(C(=O)N3CCC4CNC4C3)ccc21 (centres unmarked) [Compound I-40]

1: < 1000 nM; 2: 1000 to 5000 nM; 3: < 1000 nM; 4: > 10000 nM; 5: > 10000 nM

Would you be so kind as to report IC50 for each listed record?
1. COc1cc(C(=O)N2CC[C@H]3OCCN[C@H]3C2)cc2nc(-c3cc4cccnc4n3CC3CC3)n(C)c12 [Compound I-28]
2. CCCn1c(-c2nc3cc(C(=O)N4C[C@H]5CC[C@@H]4[C@@H]5N)cc(OC)c3n2C)cc2cccnc21 [Compound I-154]

["< 1000 nM", "< 1000 nM"]

For the 4 compounds below, give their IC50 values.
1. CCn1c(-c2cc3cccnc3n2CC2CC2)nc2cc(C(=O)N3CC[C@@H]4CCN[C@@H]4C3)cc(OC)c21 [Compound I-23]
2. COc1cc(C(=O)N2CCC3CCNC3C2)cc2nc(-c3cc4cccnc4n3CC3CC3)n(C)c12 (centres unmarked) [Compound I-8]
3. Cn1c(-c2cc3cccnc3n2CC2CC2)nc2cc(C(=O)N3C4CCC3CC(N)C4)ccc21 (centres unmarked) [Compound I-47]
4. Cn1c(-c2cc3cccnc3n2CC2CC2)nc2cc(C(=O)N3CC[C@H]4CCN[C@H]4C3)cc(OC(F)F)c21 (single isomer, unassigned) [Compound I-24, hydrochloride]

1: < 1000 nM; 2: < 1000 nM; 3: > 10000 nM; 4: > 10000 nM
